- TGT: Nitric oxide synthase, inducible (Homo sapiens) (UniProt P35228)
- EXPERIMENT SUMMARY: Inhibition of recombinant N-terminal His-tagged human iNOS expressed in Escherichia coli assessed as L-[3H]-citrulline formation at 1 mM using L-[3H]-arginine as substrate after 30 mins by liquid scintillation spectroscopy
- Sequence (P35228 whole entry): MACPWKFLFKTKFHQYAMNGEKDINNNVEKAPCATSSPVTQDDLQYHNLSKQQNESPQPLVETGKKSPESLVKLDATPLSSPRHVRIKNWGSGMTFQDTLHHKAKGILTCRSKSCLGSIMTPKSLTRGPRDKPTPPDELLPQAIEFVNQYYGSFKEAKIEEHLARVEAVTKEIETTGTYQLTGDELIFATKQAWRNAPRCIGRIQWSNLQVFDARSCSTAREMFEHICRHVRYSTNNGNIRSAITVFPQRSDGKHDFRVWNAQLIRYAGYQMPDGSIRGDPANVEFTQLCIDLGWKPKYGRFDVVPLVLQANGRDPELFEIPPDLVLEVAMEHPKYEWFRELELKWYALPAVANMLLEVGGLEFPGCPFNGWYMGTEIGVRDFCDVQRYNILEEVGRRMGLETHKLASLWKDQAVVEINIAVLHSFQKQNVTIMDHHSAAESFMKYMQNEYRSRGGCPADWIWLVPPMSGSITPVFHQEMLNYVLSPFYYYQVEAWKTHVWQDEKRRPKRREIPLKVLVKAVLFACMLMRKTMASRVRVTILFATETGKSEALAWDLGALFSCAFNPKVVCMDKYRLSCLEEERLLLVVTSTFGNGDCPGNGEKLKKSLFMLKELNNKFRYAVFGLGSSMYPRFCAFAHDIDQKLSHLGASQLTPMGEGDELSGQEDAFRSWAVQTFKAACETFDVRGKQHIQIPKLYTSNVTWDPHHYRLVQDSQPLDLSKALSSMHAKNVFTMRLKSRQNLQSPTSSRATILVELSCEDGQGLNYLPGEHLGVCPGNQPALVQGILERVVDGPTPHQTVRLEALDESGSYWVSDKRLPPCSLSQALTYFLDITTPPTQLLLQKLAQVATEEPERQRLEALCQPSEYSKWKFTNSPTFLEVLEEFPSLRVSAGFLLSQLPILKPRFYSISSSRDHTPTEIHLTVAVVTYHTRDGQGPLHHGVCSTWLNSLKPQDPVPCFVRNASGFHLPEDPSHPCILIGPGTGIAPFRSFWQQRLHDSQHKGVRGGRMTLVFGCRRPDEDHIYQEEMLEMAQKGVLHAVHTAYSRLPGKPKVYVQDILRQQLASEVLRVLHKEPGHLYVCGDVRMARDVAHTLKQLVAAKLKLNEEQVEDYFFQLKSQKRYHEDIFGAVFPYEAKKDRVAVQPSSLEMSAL
Lab note: anything with inhibition at or over 3% counts as Y; the rest go in N.

COc1ccc(N)c(C(=O)CCNC(=O)C2CCC2)c1	N
Nc1ccc(Cl)cc1C(=O)CCNC(=O)c1ccccc1	Y
CNC(=S)NCCC(O)c1cc(OC)ccc1N (configuration not stated)	Y

Task item: Entry COc1ccc(N)c(C(=O)CCNC(=O)C2CCCCC2)c1 : is its inhibition no less than 3%?
Reply: Y

Task item: Next compound: COc1ccc(N)c(C(=O)CCNC(=O)C2CC2)c1
Reply: N

Task item: Now consider CCC(=O)NCCC(=O)c1cc(OC)ccc1N and answer again.
Reply: N

Task item: Follow-up entry: Nc1ccc(Cl)cc1C(O)CCNC(=O)Nc1ccccc1 (configuration not stated)
Reply: Y

----------
Recorded inhibition by entry
- TGT: Nitric oxide synthase, inducible (Homo sapiens)
- EXPERIMENT SUMMARY: Inhibition of recombinant N-terminal His-tagged human iNOS expressed in Escherichia coli assessed as L-[3H]-citrulline formation at 1 mM using L-[3H]-arginine as substrate after 30 mins by liquid scintillation spectroscopy
Provide the reading as a plain figure in %.

Here's what some known entries look like.
CNC(=S)NCCC(O)c1ccccc1N (configuration not stated)	20.7
CCCNC(=O)NCCC(O)c1cc(OC)ccc1N (configuration not stated)	14.7
Nc1ccc(Cl)cc1C(=O)CCNC(=O)C1CC1	5.37
CC(=O)NCCC(=O)c1cc(Cl)ccc1N	19.7
CNC(=S)NCCC(=O)c1cc(OC)ccc1N	78.2
CCNC(=O)NCCC(O)c1cc(OC)ccc1N (configuration not stated)	26.6
CCCCC(=O)NCCC(=O)c1cc(OC)ccc1N	14.1
CCNC(=S)NCCC(O)c1ccccc1N (configuration not stated)	19.4

Task item: Can you look up inhibition on Nitric oxide synthase, inducible (Homo sapiens) for CCCNC(=O)NCCC(O)c1ccccc1N (configuration not stated) ?
Reply: 19

Task item: And then CCNC(=O)NCCC(=O)c1cc(Cl)ccc1N , what is it?
Reply: 78.6

Task item: What about CCCNC(=S)NCCC(O)c1cc(OC)ccc1N (configuration not stated) ?
Reply: 25.4

----------
- TGT: Nitric oxide synthase, inducible (Homo sapiens)
- EXPERIMENT SUMMARY: Inhibition of recombinant iNOS (unknown origin) assessed as L-[3H]-citrulline formation using L-[3H]-arginine as substrate after 30 mins by liquid scintillation spectroscopy
- Sequence (P35228 whole entry, looked up): as the sequence (P35228 whole entry) above
Consider the following compounds and their measured IC50 readings.
Return type: number; implicit unit µM.

CNC(=S)NCCC(O)c1cc(OC)ccc1N (stereo unspecified)	180

Task item: State the recorded IC50 for this entry: CCNC(=S)NCCC(O)c1cc(Cl)ccc1N (stereo unspecified)
Reply: 800

Task item: Same read-out for CCCNC(=S)NCCC(O)c1cc(Cl)ccc1N (stereo unspecified) ?
Reply: 860

----------
- TGT: Nitric oxide synthase, inducible (Homo sapiens)
- EXPERIMENT SUMMARY: Inhibition of recombinant N-terminal His-tagged human iNOS expressed in Escherichia coli assessed as L-[3H]-citrulline formation at 1 mM using L-[3H]-arginine as substrate after 30 mins by liquid scintillation spectroscopy
VALUE TYPE: inhibition (%)
The answer is to be given in %; state only the numeric part.

CNC(=S)NCCC(O)c1cc(Cl)ccc1N (configuration not stated)	22.1
Nc1ccccc1C(O)CCNC(=O)Nc1ccccc1 (configuration not stated)	27.9
CCCNC(=O)NCCC(O)c1cc(Cl)ccc1N (configuration not stated)	19.6
CCCNC(=S)NCCC(O)c1cc(Cl)ccc1N (configuration not stated)	55
COc1ccc(N)c(C(=O)CCNC(=O)C2CCCC2)c1	0.61

Task item: Which inhibition value belongs to COc1ccc(N)c(C(=O)CCNC(=O)c2ccccc2)c1 ?
Reply: 10.9

Task item: Subsequent entry: CCCNC(=S)NCCC(O)c1ccccc1N (configuration not stated)
Reply: 31.1
